Value source: ChEMBL document CHEMBL1142733

- Measurement Target: Progesterone receptor (Homo sapiens)
- Experimental Details: Dissociation constant for [3H]-ORG2058 at human progesterone receptor at 283 K
Experimental Readout: Kd

Prompt: Kindly indicate its recorded Kd. Item: CC[C@@H]1C[C@H]2[C@@H]3CCC4=CC(=O)CC[C@@H]4[C@H]3CC[C@]2(C)[C@H]1C(=O)CO
Completion: 2.49 nM

---

- Measurement Target: Progesterone receptor (Homo sapiens, UniProt P06401)
- Sequence (P06401 whole entry): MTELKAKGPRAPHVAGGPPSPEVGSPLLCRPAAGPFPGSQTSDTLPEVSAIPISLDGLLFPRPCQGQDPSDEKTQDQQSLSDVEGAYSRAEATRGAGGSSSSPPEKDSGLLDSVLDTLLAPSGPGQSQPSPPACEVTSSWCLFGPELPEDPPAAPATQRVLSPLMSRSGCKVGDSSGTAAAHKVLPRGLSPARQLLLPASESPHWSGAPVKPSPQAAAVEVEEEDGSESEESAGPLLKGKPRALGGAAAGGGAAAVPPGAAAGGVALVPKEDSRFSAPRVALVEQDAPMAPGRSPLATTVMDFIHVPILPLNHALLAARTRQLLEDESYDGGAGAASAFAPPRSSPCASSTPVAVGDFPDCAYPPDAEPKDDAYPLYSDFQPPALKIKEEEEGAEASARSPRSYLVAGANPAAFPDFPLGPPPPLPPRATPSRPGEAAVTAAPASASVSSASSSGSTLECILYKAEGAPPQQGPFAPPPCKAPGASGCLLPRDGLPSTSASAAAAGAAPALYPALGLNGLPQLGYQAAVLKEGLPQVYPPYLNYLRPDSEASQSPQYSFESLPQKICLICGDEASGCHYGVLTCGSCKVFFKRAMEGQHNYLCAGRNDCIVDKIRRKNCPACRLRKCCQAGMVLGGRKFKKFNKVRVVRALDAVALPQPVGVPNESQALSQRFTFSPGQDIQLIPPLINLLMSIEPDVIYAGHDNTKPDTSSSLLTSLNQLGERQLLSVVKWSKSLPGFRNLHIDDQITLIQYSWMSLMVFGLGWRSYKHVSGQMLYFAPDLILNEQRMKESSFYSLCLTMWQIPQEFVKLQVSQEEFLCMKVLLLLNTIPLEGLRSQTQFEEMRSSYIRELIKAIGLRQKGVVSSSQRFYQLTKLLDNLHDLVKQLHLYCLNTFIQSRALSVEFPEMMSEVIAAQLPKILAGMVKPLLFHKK
- Experimental Details: Dissociation constant for [3H]ORG2058 at human progesterone receptor at 273 K
Experimental Readout: Kd

Prompt: Kindly indicate its recorded Kd. Item: CC[C@@H]1C[C@H]2[C@@H]3CCC4=CC(=O)CC[C@@H]4[C@H]3CC[C@]2(C)[C@H]1C(=O)CO
Completion: 3.28 nM
